The measurements presented in this section are drawn from BigSolDB 2.1.

conditions: in isopropanol, 293.15 K
REPORTED_PROPERTY: solubility (mole fraction)
Answer using only a numeral; do not append any unit.

solubility (mole fraction) for C=CC1=C(C(=O)O)N2C(=O)[C@@H](NC(=O)/C(=N\OCC(=O)O)c3csc(N)n3)[C@H]2SC1.O.O.O ?
0.00148

====

conditions: in acetone, 288.15 K
REPORTED_PROPERTY: solubility (mole fraction)
Answer using only a numeral; do not append any unit.

solubility (mole fraction) for C=CC1=C(C(=O)O)N2C(=O)[C@@H](NC(=O)/C(=N\OCC(=O)O)c3csc(N)n3)[C@H]2SC1.O.O.O ?
0.00308
